These entries and their values trace back to paper PMC3125149.

target: P-glycoprotein (human MDR1) (Homo sapiens); construct: expressed in transfected cells; host or cells: MDCKII (canine kidney) cells, provided by P. Borst; experiment: MDCKII-hMDR1 monolayer permeability and P-gp efflux; type: in vitro ADME; settings: dog, MDCK-MDR1, with GF120918 2 µM; in presence of P-gp inhibitor GF120918 (2 µM); read-out: Papp A→B + GF120918
Sequence (P08183 whole entry): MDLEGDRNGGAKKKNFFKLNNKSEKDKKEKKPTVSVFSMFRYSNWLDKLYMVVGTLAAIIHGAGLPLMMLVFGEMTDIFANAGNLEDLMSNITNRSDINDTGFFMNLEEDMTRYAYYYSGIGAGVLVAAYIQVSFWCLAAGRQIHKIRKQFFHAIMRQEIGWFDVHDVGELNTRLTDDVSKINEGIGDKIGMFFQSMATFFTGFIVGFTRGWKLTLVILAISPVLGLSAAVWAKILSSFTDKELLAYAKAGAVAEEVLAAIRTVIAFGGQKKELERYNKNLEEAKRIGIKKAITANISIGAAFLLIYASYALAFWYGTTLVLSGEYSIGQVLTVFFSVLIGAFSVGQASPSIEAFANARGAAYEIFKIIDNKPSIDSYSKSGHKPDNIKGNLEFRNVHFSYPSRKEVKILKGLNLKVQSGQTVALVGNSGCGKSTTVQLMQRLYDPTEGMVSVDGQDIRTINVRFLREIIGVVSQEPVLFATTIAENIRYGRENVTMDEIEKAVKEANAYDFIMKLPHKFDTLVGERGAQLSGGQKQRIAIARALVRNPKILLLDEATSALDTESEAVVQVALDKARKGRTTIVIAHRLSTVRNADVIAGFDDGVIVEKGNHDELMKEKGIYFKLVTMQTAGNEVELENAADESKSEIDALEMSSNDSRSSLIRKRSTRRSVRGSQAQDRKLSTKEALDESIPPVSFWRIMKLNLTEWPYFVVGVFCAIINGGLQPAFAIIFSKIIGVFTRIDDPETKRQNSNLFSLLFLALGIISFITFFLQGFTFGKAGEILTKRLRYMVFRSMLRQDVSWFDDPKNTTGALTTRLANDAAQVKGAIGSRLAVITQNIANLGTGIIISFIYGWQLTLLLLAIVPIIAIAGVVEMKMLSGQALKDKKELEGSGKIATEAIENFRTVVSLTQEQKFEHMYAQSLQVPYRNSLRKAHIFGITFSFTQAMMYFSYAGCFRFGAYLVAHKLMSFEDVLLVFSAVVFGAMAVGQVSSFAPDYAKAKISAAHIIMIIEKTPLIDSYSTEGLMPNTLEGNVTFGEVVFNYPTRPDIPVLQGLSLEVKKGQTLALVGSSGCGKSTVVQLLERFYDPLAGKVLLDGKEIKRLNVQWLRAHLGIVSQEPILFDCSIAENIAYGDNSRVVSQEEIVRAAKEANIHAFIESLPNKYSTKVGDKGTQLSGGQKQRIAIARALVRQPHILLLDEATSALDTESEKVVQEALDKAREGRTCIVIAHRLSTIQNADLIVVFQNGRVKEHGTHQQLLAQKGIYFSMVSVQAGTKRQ
quantity: Papp A→B at 1 h, 3 µM (×10⁻⁶ cm/s)

# structure_smiles_string, study_target, quantity, readout_number
data = [
    ("CC1(C)OB(O)c2cc(NC(=O)c3ccc(F)cc3C(F)(F)F)ccc21", "P-glycoprotein (human MDR1) (Homo sapiens)", "Papp A→B at 1 h, 3 µM", 85.3),
]
